- Assay explanation: Cytotoxicity against human SK-N-SH cells by MTS assay
- Format: cell-based
Entries whose CC50 is below 30 µM take 1.0; entries at or above 30 µM take 0.0.

[[record]]
compound = "CO/C(=N\\OCC(O)CN1CCCCC1)c1nc2ccccc2o1 (stereo unspecified)"
class_name = 0.0

[[record]]
compound = "OC(CO/N=C(\\Cl)c1nc2ccc(Cl)cc2o1)CN1CCCCC1 (stereo unspecified)"
class_name = 1.0

[[record]]
compound = "Cc1ccc2nc(/C(Cl)=N/OCC(O)CN3CCCCC3)oc2c1 (stereo unspecified)"
class_name = 1.0

[[record]]
compound = "CCS(=O)(=O)c1ccc2oc(/C(Cl)=N/OCC(O)CN3CCCCC3)nc2c1 (stereo unspecified)"
class_name = 0.0

[[record]]
compound = "CC(C)(C)NCC(O)CO/N=C(\\Cl)c1nc2ccccc2o1 (stereo unspecified)"
class_name = 1.0

[[record]]
compound = "OC(CO/N=C(\\Cl)c1nc2cc(Cl)ccc2o1)CN1CCCCC1 (stereo unspecified)"
class_name = 1.0

[[record]]
compound = "CC1CC(C)CN(CC(O)CO/N=C(\\Cl)c2nc3ccccc3o2)C1 (stereo unspecified)"
class_name = 0.0

[[record]]
compound = "OC(CO/N=C/c1nc2ccccc2o1)CN1CCCCC1 (stereo unspecified)"
class_name = 0.0

[[record]]
compound = "OC(CO/N=C(\\Cl)c1nc2c(F)cccc2o1)CN1CCCCC1 (stereo unspecified)"
class_name = 1.0

[[record]]
compound = "OC(CO/N=C(\\Cl)c1cc2ccccc2s1)CN1CCCCC1 (stereo unspecified)"
class_name = 0.0


* * *

- Assay explanation: Cytotoxicity against human SK-N-SH cells by MTS assay
- Format: cell-based
Entries whose CC50 is below 40 µM take Y; entries at or above 40 µM take N.

[[record]]
compound = "CCCN(CC(O)CO/N=C(\\Cl)c1nc2ccccc2o1)C(C)C (stereo unspecified)"
class_name = "N"

[[record]]
compound = "CCN(CC)CC(O)CO/N=C(\\Cl)c1nc2ccccc2o1 (stereo unspecified)"
class_name = "Y"

[[record]]
compound = "CC(=O)NCC(O)CO/N=C(\\Cl)c1nc2ccccc2o1 (stereo unspecified)"
class_name = "N"

[[record]]
compound = "CC(C)N(CC(O)CO/N=C(\\Cl)c1nc2ccccc2o1)CC1CC1 (stereo unspecified)"
class_name = "Y"

[[record]]
compound = "OC(CO/N=C(\\Cl)c1nc2c(ccc3ccccc32)o1)CN1CCCCC1 (stereo unspecified)"
class_name = "Y"

[[record]]
compound = "C/C(=N\\OCC(O)CN1CCCCC1)c1nc2ccccc2o1 (stereo unspecified)"
class_name = "N"

[[record]]
compound = "CC(C)N(CCO)CC(O)CO/N=C(\\Cl)c1nc2ccccc2o1 (stereo unspecified)"
class_name = "Y"

[[record]]
compound = "Cc1ccc2oc(/C(Cl)=N/OCC(O)CN3CCCCC3)nc2c1 (stereo unspecified)"
class_name = "Y"

[[record]]
compound = "OC(CO/N=C(\\Cl)c1nc2ccccc2o1)CN1CCOCC1 (stereo unspecified)"
class_name = "N"

[[record]]
compound = "CCCN(CCC)CC(O)CO/N=C(\\Cl)c1nc2ccccc2o1 (stereo unspecified)"
class_name = "N"


* * *

- System: SK-N-SH
- Assay explanation: Cytoprotective activity against 26S proteasome inhibitor MG132-induced stress in human SK-N-SH cells assessed as cell viability treated 1 hr before MG132 challenge measured after 24 hrs
- Assay type: functional, cell-based
- Conditions: Homo sapiens, SK-N-SH; read-out: EC50
Measured EC50, listed per entry for reference.
Property: EC50 (µM)

[[record]]
molecule = "OC(CO/N=C(\\Cl)c1nc2cc(F)ccc2o1)CN1CCCCC1 (centres undefined)"
property = "EC50"
value_unit = "µM"
observed = 12

[[record]]
molecule = "OC(CO/N=C(\\Cl)c1nc2ccccc2o1)CN1CCCCC1 (centres undefined)"
property = "EC50"
value_unit = "µM"
observed = 15.7

[[record]]
molecule = "OC(CO/N=C(\\Cl)c1nc2ccccc2o1)CN1CCOCC1 (centres undefined)"
property = "EC50"
value_unit = "µM"
observed = 61.7

[[record]]
molecule = "OC(CO/N=C(\\Cl)c1nc2ccccc2o1)CN1CCC(F)CC1 (centres undefined)"
property = "EC50"
value_unit = "µM"
observed = 18.8

[[record]]
molecule = "CCCN(CC(O)CO/N=C(\\Cl)c1nc2ccccc2o1)C(C)C (centres undefined)"
property = "EC50"
value_unit = "µM"
observed = 8.9

[[record]]
molecule = "CCCN(CC)CC(O)CO/N=C(\\Cl)c1nc2ccccc2o1 (centres undefined)"
property = "EC50"
value_unit = "µM"
observed = 12.4

[[record]]
molecule = "CC1CCCC(C)N1CC(O)CO/N=C(\\Cl)c1nc2ccccc2o1 (centres undefined)"
property = "EC50"
value_unit = "µM"
observed = 11.1

[[record]]
molecule = "CC(=O)NCC(O)CO/N=C(\\Cl)c1nc2ccccc2o1 (centres undefined)"
property = "EC50"
value_unit = "µM"
observed = 41.9

[[record]]
molecule = "O=C(NCC(O)CO/N=C(\\Cl)c1nc2ccccc2o1)N1CCCCC1 (centres undefined)"
property = "EC50"
value_unit = "µM"
observed = 43.6

[[record]]
molecule = "CC(C)N(CCCF)CC(O)CO/N=C(\\Cl)c1nc2ccccc2o1 (centres undefined)"
property = "EC50"
value_unit = "µM"
observed = 10.1

[[record]]
molecule = "OC(CO/N=C(\\Cl)c1nc2ccccc2o1)CN1CCCC(F)C1 (centres undefined)"
property = "EC50"
value_unit = "µM"
observed = 20

[[record]]
molecule = "CCCN(CCC)CC(O)CO/N=C(\\Cl)c1nc2ccccc2o1 (centres undefined)"
property = "EC50"
value_unit = "µM"
observed = 10.2

[[record]]
molecule = "Cc1ccc2oc(/C(Cl)=N/OCC(O)CN3CCCCC3)nc2c1 (centres undefined)"
property = "EC50"
value_unit = "µM"
observed = 9.5

[[record]]
molecule = "OC(CO/N=C(\\Cl)c1nc2ccccc2s1)CN1CCCCC1 (centres undefined)"
property = "EC50"
value_unit = "µM"
observed = 13.5


* * *

- Assay explanation: Cytotoxicity against human HeLa cells by MTS assay
- Type: cell-based
Entries whose CC50 is below 40 µM take 1; entries at or above 40 µM take -1.

[[record]]
molecule = "OC(CO/N=C(\\Cl)c1cc2ccccc2s1)CN1CCCCC1 (stereo unspecified)"
class_name = -1

[[record]]
molecule = "OC(CO/N=C(\\Cl)c1nc2ccccc2s1)CN1CCCC1 (stereo unspecified)"
class_name = -1

[[record]]
molecule = "CC(C)N(CC(O)CO/N=C(\\Cl)c1nc2ccccc2o1)CC1CC1 (stereo unspecified)"
class_name = 1

[[record]]
molecule = "C/C(=N\\OCC(O)CN1CCCCC1)c1nc2ccccc2o1 (stereo unspecified)"
class_name = -1

[[record]]
molecule = "CC(C)(C)NCC(O)CO/N=C(\\Cl)c1nc2ccccc2o1 (stereo unspecified)"
class_name = -1

[[record]]
molecule = "CC(C)N(CCO)CC(O)CO/N=C(\\Cl)c1nc2ccccc2o1 (stereo unspecified)"
class_name = -1

[[record]]
molecule = "CN(C)S(=O)(=O)c1ccc2nc(/C(Cl)=N/OCC(O)CN3CCCCC3)oc2c1 (stereo unspecified)"
class_name = -1

[[record]]
molecule = "CCCN(CC(O)CO/N=C(\\Cl)c1nc2ccccc2o1)C(C)C (stereo unspecified)"
class_name = -1

[[record]]
molecule = "OC(CO/N=C(\\Cl)c1cc2ccccc2o1)CN1CCCCC1 (stereo unspecified)"
class_name = -1

[[record]]
molecule = "Cc1ccc2nc(/C(Cl)=N/OCC(O)CN3CCCCC3)oc2c1 (stereo unspecified)"
class_name = 1

